TEST_PROTOCOL: NCI Yeast Anticancer Drug Screen. Data for the mec2-1 strain (AID 157)
CONDITION_DETAILS: S. cerevisiae mec2-1 strain, at 50.0 µM, active compounds read high
This is part of a sample that, as a whole, favours compounds with a hit. Of some 79,000 tested, about 15% had one in any assay.
Measured growth inhibition values are reported for all entries that follow.
Give just the numeric value; % need not be written.

Use these answered entries as a reference point.
COMPOUND | growth inhibition, %
CC(C)C(OC(=O)c1ccc(NCc2cc(O)ccc2O)cc1)C(C)C | 92
CN1c2ccccc2C(C)(C)C12C=Cc1cc(O)ccc1O2 (centres undefined) | 47.6

Given item `C1CSCCCSCCCSCCCSCCCSC1` , the value recorded as its growth inhibition is 21.4

growth inhibition measured on `N#C/C(=C\c1c(Cl)cccc1Cl)c1nc2ccccc2[nH]1` = 90.2

Lab book: growth inhibition of `Clc1ccc(N=Cc2c3ccccc3cc3ccccc23)c(Cl)c1` noted as 85.4

For `O=[N+]([O-])c1cccc(S(=O)(=O)N/N=C/c2cc(I)cc([N+](=O)[O-])c2O)c1` the compound record lists growth inhibition as 13.1

Form field growth inhibition, entry `Oc1ccc(-c2ccccc2)cc1Br` : 99.7

Record `Cc1nc(Nc2c(C)cccc2C)c2c(C)c[nH]c2n1` . Reported growth inhibition: 69.1

----------
growth inhibition values by entry
TEST_PROTOCOL: NCI Yeast Anticancer Drug Screen. Data for the cln2 rad14 strain (AID 165);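 note: 0% = growth equal to vehicle treated cultures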
CONDITION_DETAILS: S. cerevisiae cln2 rad14 strain, at 50.0 µM, active compounds read high
Compounds without any hit were thinned out: in the full panel of roughly 79,000, 15% have a hit.
Field: numeric (%). Do not append units.

COMPOUND | EXPERIMENTAL_ENDPOINT | RECORDED_VALUE
Cc1occc1C(=S)Nc1ccc(Cl)c(C(=O)OCC(C)C)c1 | growth inhibition | 57.6
CCOC(=O)CCC(NC(=O)c1ccc(NC(OC)c2nc3cc(C(F)(F)F)ccc3nc2-c2ccccc2)cc1)C(=O)OCC (stereo unspecified) | growth inhibition | 92.7

API: the following record is the query input.
The compound listed as `CN(C)/N=C(/CC(O)(C(F)(F)F)C(F)(F)F)c1ccc([N+](=O)[O-])cc1` shows growth inhibition equal to -18.6

----------
TEST_PROTOCOL: NCI Yeast Anticancer Drug Screen. Data for the cln2 rad14 strain (AID 165);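 note: 0% = growth equal to vehicle treated cultures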
CONDITION_DETAILS: S. cerevisiae cln2 rad14 strain, at 50.0 µM, active compounds read high
Description: Growth inhibition of yeast strains with defined genetic alterations is measured as a screen for potential anti-cancer activity. Selected strains with alterations in DNA damage repair or cell cycle control were exposed to compounds and growth inhibition was measured relative to vehicle treated controls. The strain used in this assay is cln2 rad14
Compounds without any hit were thinned out: in the full panel of roughly 79,000, 15% have a hit.
EXPERIMENTAL_ENDPOINT: growth inhibition (%)
Entry rule: numbers only, all in %.

// recorded growth inhibition for `COc1ccc(OC)c(N=Nc2c(C)[nH]n(C(N)=S)c2=O)c1` : 10.6

In plain terms, COC(=O)[C@@]12OC[C@]34[C@H]([C@@H](O)[C@@H]1O)[C@@]1(C)[C@H](O)C(=O)C=C(C)[C@@H]1C[C@H]3OC(=O)C(OC(C)=O)[C@@H]24 (some centres undefined) has a documented growth inhibition of 90.5

growth inhibition reading for CCCCCCCCCCCCCCOC(=O)C(N)Cc1ccc(O)cc1 (centres undefined) : 95.1

Consider `Cc1ccc(O)c(C(c2cccc(C(c3cc(C)ccc3O)c3cc(C)ccc3O)c2)c2cc(C)ccc2O)c1` . Its measured growth inhibition is 91.6

----------
# Lookup of reported growth inhibition keyed by entry
TEST_PROTOCOL: NCI Yeast Anticancer Drug Screen. Data for the mec2-1 strain (AID 157)
CONDITION_DETAILS: S. cerevisiae mec2-1 strain, at 50.0 µM, active compounds read high
About 79,000 compounds went through this panel and 15% of them were active in at least one assay; those are over-represented in the sample as a whole.
Express the result in % but write the number alone.

Answered examples (5):
COMPOUND | UNIT_OF_MEASURE | growth inhibition
O=C(O/N=C1/CCC/C1=C\c1ccccc1)c1ccccc1 | % | 98.2
C=C1CC(C)(COc2ccc3c(C)c(C)c(=O)oc3c2C)OC1=O (configuration not stated) | % | -75.4
CC1=NC(C)=C(/C(C)=N/NC(=O)c2ccccc2O)C(C)/C1=C(/C)NNC(=O)c1ccccc1O (configuration not stated) | % | 75
COC(=O)c1cc2c(c(C(=O)OC)c1O)C(=O)C=CC2=O | % | 84
Cc1ccc(S(=O)(=O)Nc2ccc3c(c2)C(=O)c2ccccc2-3)cc1 | % | 91.4

So, O=C(Nc1ccc(F)c([N+](=O)[O-])c1)NC(Cc1ccccc1)c1ccccc1 (configuration not stated) ? Its growth inhibition was 94.2

Lab book: growth inhibition of `O=C1c2cccnc2-c2nccc3c2c1nc1cc(Br)ccc13` noted as 92.2

Looking up `O=C(N=c1sc2ccccc2s1)N=c1sc2ccccc2s1` , I see its growth inhibition listed as -2.6

Notebook: `O=C(CSC1=NNC2(C(=O)N1)c1ccccc1-c1ccccc12)NC(=S)Nc1ccccc1` , growth inhibition read as 97

growth inhibition reported for this compound `c1ccc2c(c1)C[n+]1ccc3ccccc3c1-c1c3ccccc3cc[n+]1C2` : 13.4

GET /value?item= `c1cc(C2=NCCN2)ccc1Nc1ccc(-c2cc3ccc(C4=NCCN4)cc3[nH]2)cc1` &field=growth inhibition returns 99.2

Given item N#CC1C=C(Cl)c2ccc(Cl)cc2N1C(=O)c1ccccc1 (configuration not stated) , the value recorded as its growth inhibition is 99.2

Item: `CS(=O)(=O)OCCN(CCOS(C)(=O)=O)c1ccc(C=Nc2cccc(Cl)c2)cc1` | growth inhibition: 86.5

Per the records, this compound ( `O=C(O)C(c1ccc(Cl)cc1)c1ccc(Cl)cc1` ) has growth inhibition equal to 95.5

Quick note, growth inhibition for `O=C(N/C(=C\c1ccccc1Cl)c1nc2ccccc2s1)c1ccccc1` landed at 99.2

Input COc1cccc(C2c3cc4c(cc3OC(Nc3ccccc3)C2C)OCO4)c1O (configuration not stated) . Output growth inhibition: 55.1

In plain terms, CCCCC(CCc1ccccc1)(C(=O)O)c1ccccc1 (configuration not stated) has a documented growth inhibition of 99.5

Entry `CCN(CC)CCCNc1nccc2c(C)c3[nH]c4ccncc4c3cc12` , growth inhibition reported as -2

Per the record, `CN(C)N=Nc1ccc(Cl)c2ncccc12` has growth inhibition of 2.1

----------
TEST_PROTOCOL: NCI Yeast Anticancer Drug Screen. Data for the rad50 strain (AID 155);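 note: 0% = growth of vehicle-only cultures of the same strain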
CONDITION_DETAILS: S. cerevisiae rad50 strain growth inhibition; at 5.0 µM (retest, dose inferred, filed as 0.5); active compounds read high
About 79,000 compounds went through this panel and 15% of them were active in at least one assay; those are over-represented in the sample as a whole.
growth inhibition values, listed per item
Give the value, in units of %, as a plain number.

// worked examples, growth inhibition included
COMPOUND | UNIT_OF_MEASURE | growth inhibition
N#CC1Oc2ccccc2N1C(=O)c1ccccc1 (centres undefined) | % | 2
COC(O)C(=O)c1c2c(cc3c1CC1(Cc4cc5c(cc4C1)CCC5)C3)CCC2 (centres undefined) | % | 69
O=C(Nc1ccc(C(=O)c2ccccc2)cc1)Nc1ccc(Cl)c(Cl)c1 | % | 23
C/C(=C/c1ccccc1)C(=O)C1C(c2ccccc2)CC(O)C(C)C1c1ccccc1 (centres undefined) | % | 11

--- query ---
For `COC(=O)c1c(C)cccc1C(=O)c1ccc(C)cc1C` the compound record lists growth inhibition as -14

----------
TEST_PROTOCOL: NCI Yeast Anticancer Drug Screen. Data for the bub3 strain (AID 167)
CONDITION_DETAILS: S. cerevisiae bub3 mutant strain, at 5.0 µM (retest, dose inferred, filed as 0.5), active compounds read high
Experimental: Growth inhibition of yeast strains with defined genetic alterations is measured as a screen for potential anti-cancer activity. Selected strains with alterations in DNA damage repair or cell cycle control were exposed to compounds and growth inhibition was measured relative to vehicle treated controls. The strain used in this assay is bub3
This is part of a sample that, as a whole, favours compounds with a hit. Of some 79,000 tested, about 15% had one in any assay. Activity calls are given as the source filed them. Cut-off read from the data, not from the text of the source: active = growth inhibition above about 70%; inactive = the rest.
EXPERIMENTAL_ENDPOINT: growth inhibition

Record excerpt, results attached:
COMPOUND | growth inhibition
COc1cc(OC)cc(C2OC3=C(Nc4ccc([N+](=O)[O-])cc4N3)C2=O)c1 (stereo unspecified) | 24% (inactive)
O=C(NNc1ccc(F)cc1)C12CC3CC(CC(C3)C1)C2 | -3% (inactive)
CC(=O)Oc1cc2c(cc1OC(C)=O)OCC(c1ccc(C)cc1)C2 (stereo unspecified) | 8% (inactive)
CCCC(O)C[N+](=O)[O-] (stereo unspecified) | -1% (inactive)
C/C(=N/Nc1ccccc1)C(=O)O | 6% (inactive)

Looking up `Clc1ccccc1CN1COc2c(ccc3cccnc23)C1` , I see its growth inhibition listed as 7% (inactive)

Value of growth inhibition reported for the compound `COc1nc(Nc2ccc(/C=C/c3ccc(Nc4nc(OC)nc(N(CCO)CCO)n4)cc3S(=O)(=O)O)c(S(=O)(=O)O)c2)nc(N(CCO)CCO)n1` is -4% (inactive)

Short answer for `NC(=O)NN=C1CSSC1` : growth inhibition was 1% (inactive)

Sample `O=C(C(Oc1ccc(Cl)cc1)Oc1ccc(Cl)cc1)N(O)c1ccccc1OCc1ccccc1` ; growth inhibition observed: 6% (inactive)

The recorded growth inhibition for `CCOc1ccccc1-c1nc2c(s1)C(=O)c1ccccc1C2=O` is 98% (active)

So for Cc1occc1C(=S)Nc1ccc(Cl)c(C(=O)OC(C)C2CC2)c1 (stereo unspecified) , the logged growth inhibition turned out to be 6% (inactive)
